Experiment: Assessment of solubility (McIlvaine buffers, 24 h shake, UPLC-UV)
Format: physicochemical
Settings: pH 2.2, aqueous buffer, kinetic from dmso stock
measurement_label: solubility at 24 h (µg/mL)

>  <compound>
COCC(C)N1CCc2cc(COc3c(C)cccc3-c3cccc(-n4ncc(C(=O)O)c4OC)n3)ccc2C1 (stereo not shown)

>  <units_label>
µg/mL

>  <solubility at 24 h>
99

$$$$
>  <compound>
CCOc1c(C(=O)O)cnn1-c1cccc(-c2cccc(C)c2OCc2ccc3c(c2)CCN(C2CCOC(C)C2)C3)n1 (stereo not shown)

>  <units_label>
µg/mL

>  <solubility at 24 h>
100

$$$$
>  <compound>
COc1c(C(=O)O)cnn1-c1cccc(-c2cccc(C)c2OCc2ccc3c(c2Cl)CCN(C2COC2)C3)n1

>  <units_label>
µg/mL

>  <solubility at 24 h>
97

$$$$
>  <compound>
COc1c(C(=O)O)cnn1-c1cccc(-c2cccc(C)c2OCc2ccc3c(c2F)CCN([C@H]2CCOC2)C3)n1

>  <units_label>
µg/mL

>  <solubility at 24 h>
100

$$$$
